What pKd was measured for each of the following?
- system-tested: T1, human PD-1 extracellular domain (human, UniProt Q15116 25-170)
- T1 construct: extracellular domain; Soluble analyte in the bio-layer interferometry assay; also called recombinant human PD-1 extracellular domain protein
- T1 sequence (Q15116 25-170): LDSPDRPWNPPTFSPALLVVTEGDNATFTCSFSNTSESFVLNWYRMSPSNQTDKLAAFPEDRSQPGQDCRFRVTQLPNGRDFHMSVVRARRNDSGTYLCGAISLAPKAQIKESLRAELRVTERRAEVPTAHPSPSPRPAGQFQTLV
- method-notes: bio-layer interferometry (Octet Red 96), antibody on anti-human Fc biosensor, PD-1 ECD in solution, 1:1 global fit, 30 C
Answers are plain numbers, as −log10 of the molar value.

For the 3 binders below, give their pKd values.
1. AB5 (antibody, human IgG1, kappa, V domains shown, Rabbit variable domains on human IgG1 / human kappa constant domains; also called AB5 chimeric) VH: QEQLEESGGDLVKPEGSLTLTCTASGFSFSSSHWICWVRQAPGKGLEWIACIYTGSIDVFYCASWAKGRFTISKPSSTTVTLQVPSLTAADTATYFCARAANTDTTYFNLWGPGTLVTVSS VL: AYDMTQTPSSVSAAVGGTVTINCQASQSINNQLSWYQQKPGQPPKLLIYGASTLASGVPSRFTGSGSGTEFTLTISGVQCDDAATYYCHVHYCSGGSCFWAFGGGTEVVVKR
2. AB4 (antibody, human IgG1, kappa, V domains shown, Rabbit variable domains on human IgG1 / human kappa constant domains; also called AB4 chimeric) VH: QSLEESGGRLVTPGTPLTLTCTVSGFSLSSYAMSWVRQAPGKGLEYIGYIGDTTGIAYASWANGRFTISKTSTTVDLKITSPTTGDTATYFCARGWSYLDIWGQGTLVTVSS VL: ALVMTQTPSSVSAAVGGTVTINCQASQNIYSNLAWYQQKPGQPPSLLIYQASTLASGVSSRFSGSGYGTEFTLTISDLECADAATYYCQGGYYSAALNTFGGGTEVVVKR
3. AB3 (antibody, human IgG1, kappa, V domains shown, Rabbit variable domains on human IgG1 / human kappa constant domains; also called AB3 chimeric) VH: QEQVKETGGGLVQPGGSLTLSCKASGFTISSYGVSWVRQAPGKGLEWIALIFPGIGFKDYASWVNGRFTLSSDNAQNTVELQMNSLTAADTAAYFCARDLDLWGQGTLVTVSS VL: QVLTQTPSPVSAAVGGTVSISCQSSPSVYSNYLSWFQQKPGQPPKLLIYYASTLASGVPSRFKGSGSGTQFTLTISDVQCDDAATYYCAGGYSSSTRAFGGGTEVVVKR

8.48
8.04
9.05

FYI, the data here is from patent US20200157219A1.
